Tested on: rodent lifetime carcinogenesis bioassay, tumor incidence TD50
Assay: carcinogenic potency in animals, long-term in vivo studies, CPDB compilation (AID 1745844)
Conditions: rat; strain Wistar; males; in feed; site: forestomach; lesion: squamous-cell papilloma; dosed 90 weeks; study length 102 weeks
ENDPOINT LABEL: TD50

(Q) Would you kindly share the measured TD50 for O=P(O)(OCC(Br)CBr)OCC(Br)CBr (stereo unspecified) ?
(A) 43.5 mg/kg/day

###

System: rodent lifetime carcinogenesis bioassay, tumor incidence TD50
Assay: carcinogenic potency in animals, long-term in vivo studies, CPDB compilation (AID 1745844)
Details: rat; strain Fischer 344; females; in feed; site: stomach + urinary bladder; lesion: squamous-cell papilloma + papillomatosis + papillary carcinoma + papilloma, NOS + transitional-cell carcinoma + transitional-cell; dosed 78 weeks; study length 105 weeks
ENDPOINT LABEL: TD50 (mg/kg/day)
Numbers only, in mg/kg/day.

(Q) Would you kindly share the measured TD50 for Nc1ccc(Cl)cc1N ?
(A) 212

###

Tested on: rodent lifetime carcinogenesis bioassay, tumor incidence TD50
Test: carcinogenic potency in animals, long-term in vivo studies, CPDB compilation (AID 1745844)
Conditions: mouse; strain Swiss; males; inhaled; site: any site (literature study); lesion: malignant tumor; dosed 52 weeks; study length 126 weeks
ENDPOINT LABEL: TD50 (mg/kg/day)
One number for each entry, in mg/kg/day.

(Q) Would you kindly share the measured TD50 for C=C(Cl)Cl ?
(A) 50.3

###

System: rodent lifetime carcinogenesis bioassay, tumor incidence TD50
Experiment: carcinogenic potency in animals, long-term in vivo studies, CPDB compilation (AID 1745844)
Settings: mouse; strain BALB/cStCrlfC3Hf/Nctr; females; in feed; site: mammary gland; lesion: adenocarcinoma, type B; dosed 132 weeks; study length 133 weeks
ENDPOINT LABEL: TD50

(Q) Would you kindly share the measured TD50 for CC/C(=C(/CC)c1ccc(O)cc1)c1ccc(O)cc1 ?
(A) 0.476 mg/kg/day

###

Test system: rodent lifetime carcinogenesis bioassay, tumor incidence TD50
Experiment: carcinogenic potency in animals, long-term in vivo studies, CPDB compilation (AID 1745844)
Conditions: mouse; strain B6C3F1; males; inhaled; site: preputial gland; lesion: carcinoma + carcinoma, bilateral; dosed 52 weeks; study length 104 weeks
ENDPOINT LABEL: TD50

(Q) Would you kindly share the measured TD50 for C=CC=C ?
(A) 20.1 mg/kg/day

###

System: rodent lifetime carcinogenesis bioassay, tumor incidence TD50
Test: carcinogenic potency in animals, long-term in vivo studies, CPDB compilation (AID 1745844)
Conditions: rat; strain F344/DuCrj; females; in feed; site: forestomach; lesion: squamous-cell papilloma; dosed 104 weeks; study length 104 weeks
ENDPOINT LABEL: TD50

STRUCTURE STRING	TD50
Cc1ccc(O)c(O)c1	253 mg/kg/day

Now look at this one.
(Q) Would you kindly share the measured TD50 for COc1ccc(O)cc1 ?
(A) 2580 mg/kg/day

###

System: rodent lifetime carcinogenesis bioassay, tumor incidence TD50
Test: carcinogenic potency in animals, long-term in vivo studies, CPDB compilation (AID 1745844)
Conditions: rat; strain Fischer 344; males; by gavage; site: colon + rectum; lesion: adenocarcinoma, NOS + adenomatous polyp, NOS; dosed 102 weeks; study length 104 weeks
ENDPOINT LABEL: TD50

(Q) Would you kindly share the measured TD50 for ClC(Cl)Br ?
(A) 30.7 mg/kg/day

###

System: rodent lifetime carcinogenesis bioassay, tumor incidence TD50
Assay: carcinogenic potency in animals, long-term in vivo studies, CPDB compilation (AID 1745844)
Details: rat; strain Fischer 344; males; inhaled; site: liver; lesion: hepatocellular adenoma + hepatoblastoma + hepatocellular carcinoma; dosed 103 weeks; study length 104 weeks
ENDPOINT LABEL: TD50 (mg/kg/day)
One number for each entry, in mg/kg/day.

STRUCTURE STRING	ENDPOINT LABEL	OUTPUT UNIT	DATA VALUE
CC#N	TD50	mg/kg/day	168

Now look at this one.
(Q) Would you kindly share the measured TD50 for FC(F)=C(F)F ?
(A) 81.6

###

Test system: rodent lifetime carcinogenesis bioassay, tumor incidence TD50
Assay: carcinogenic potency in animals, long-term in vivo studies, CPDB compilation (AID 1745844)
Settings: rat; strain Sprague-Dawley; females; inhaled; site: any site (literature study); lesion: several types; types named in the paper; dosed 52 weeks; study length 139 weeks
ENDPOINT LABEL: TD50
Please state the value followed by its unit.

(Q) Would you kindly share the measured TD50 for C=CCl ?
(A) 37.4 mg/kg/day

###

Tested on: rodent lifetime carcinogenesis bioassay, tumor incidence TD50
Experiment: carcinogenic potency in animals, long-term in vivo studies, CPDB compilation (AID 1745844)
Settings: rat; strain Sprague-Dawley; females; i.p.; site: ear canal + skin; lesion: squamous-cell carcinoma; dosed 36 weeks; study length 81 weeks
ENDPOINT LABEL: TD50

(Q) Would you kindly share the measured TD50 for S=P(N1CC1)(N1CC1)N1CC1 ?
(A) 0.217 mg/kg/day

###

Tested on: rodent lifetime carcinogenesis bioassay, tumor incidence TD50
Assay: carcinogenic potency in animals, long-term in vivo studies, CPDB compilation (AID 1745844)
Details: mouse; strain B6C3F1; males; in feed; site: lung; lesion: alveolar/bronchiolar adenoma + alveolar/bronchiolar carcinoma; dosed 79 weeks; study length 93 weeks
ENDPOINT LABEL: TD50 (mg/kg/day)
One number for each entry, in mg/kg/day.

(Q) Would you kindly share the measured TD50 for Nc1ccc2c(c1)C(=O)c1ccccc1C2=O ?
(A) 19400

###

Test system: rodent lifetime carcinogenesis bioassay, tumor incidence TD50
Assay: carcinogenic potency in animals, long-term in vivo studies, CPDB compilation (AID 1745844)
Settings: rat; strain Fischer 344; males; by gavage; site: adrenal medulla; lesion: pheochromocytoma + pheochromocytoma, malignant; dosed 103 weeks; study length 104 weeks
ENDPOINT LABEL: TD50

Worked set:
COMPOUND	ENDPOINT LABEL	DATA VALUE
CC(O)c1ccccc1 (stereo not drawn)	TD50	135 mg/kg/day
S=c1[nH]c2ccccc2s1	TD50	394 mg/kg/day

Now look at this one.
(Q) Would you kindly share the measured TD50 for Nc1ccc([N+](=O)[O-])cc1O ?
(A) 101 mg/kg/day

###

Can you tell me log10(TD50) for the items I'm about to list?
Tested on: rodent lifetime carcinogenesis bioassay, tumor incidence TD50
Assay: carcinogenic potency in animals, long-term in vivo studies, CPDB compilation (AID 1745844)
Conditions: mouse; strain B6C3F1; males; in feed; site: liver; lesion: hepatocellular adenoma + hepatocellular carcinoma + neoplastic nodule; dosed 78 weeks; study length 95 weeks
Hey, these are logged values: log10 of TD50, mg/kg/day being the unit before logging.

Worked set:
STRUCTURE STRING	DATA VALUE
Nc1ccc(Cl)cc1N	2.98
c1ccc(NNc2ccccc2)cc1	3.04
CCn1c2ccccc2c2cc(N)ccc21	1.70
O=[N+]([O-])c1ccc2nc[nH]c2c1	2.59
Cc1ccc([N+](=O)[O-])cc1N	2.42

Now look at this one.
(Q) Provide the documented log10(TD50) with rodent lifetime carcinogenesis bioassay, tumor incidence TD50 as the system for [O-]/[N+](=N\O)c1ccccc1
(A) 3.74

###

Tested on: rodent lifetime carcinogenesis bioassay, tumor incidence TD50
Assay: carcinogenic potency in animals, long-term in vivo studies, CPDB compilation (AID 1745844)
Conditions: rat; strain Wistar; males; in drinking water; site: lung; lesion: adenocarcinoma; dosed 45 weeks; study length 52 weeks
ENDPOINT LABEL: TD50
Please state the value followed by its unit.

(Q) Provide the documented TD50 with rodent lifetime carcinogenesis bioassay, tumor incidence TD50 as the system for CC(O)CN(CC(C)O)N=O (stereo unspecified)
(A) 3.36 mg/kg/day

###

Tested on: rodent lifetime carcinogenesis bioassay, tumor incidence TD50
Assay: carcinogenic potency in animals, long-term in vivo studies, CPDB compilation (AID 1745844)
Conditions: mouse; strain B6C3F1; females; in drinking water; site: liver; lesion: hepatoblastoma + hepatocellular carcinoma; dosed 104 weeks; study length 104 weeks
ENDPOINT LABEL: TD50

(Q) Would you kindly share the measured TD50 for c1ccncc1 ?
(A) 27.2 mg/kg/day

###

Tested on: rodent lifetime carcinogenesis bioassay, tumor incidence TD50
Assay: carcinogenic potency in animals, long-term in vivo studies, CPDB compilation (AID 1745844)
Settings: rat; strain Fischer 344; males; in feed; site: all sites; lesion: mesothelioma, NOS; dosed 105 weeks; study length 105 weeks
ENDPOINT LABEL: TD50

(Q) Provide the documented TD50 with rodent lifetime carcinogenesis bioassay, tumor incidence TD50 as the system for CCN(CC)C(=S)S[Te](SC(=S)N(CC)CC)(SC(=S)N(CC)CC)SC(=S)N(CC)CC
(A) 77.6 mg/kg/day

###

System: rodent lifetime carcinogenesis bioassay, tumor incidence TD50
Test: carcinogenic potency in animals, long-term in vivo studies, CPDB compilation (AID 1745844)
Settings: rat; strain NZBW (hooded black and white strain); females; in feed; site: any site (literature study); lesion: several types; types named in the paper; dosed 104 weeks; study length 104 weeks
The source made the active and inactive calls. No rule for the calls is given here.
ENDPOINT LABEL: TD50

(Q) Would you kindly share the measured TD50 for CC(C)(C)c1cc(CO)cc(C(C)(C)C)c1O ?
(A) 3710 mg/kg/day (inactive)
